Tested on: subclones of RKO colon adenocarcinoma cells (RKOp27 or RKOp21) arrested by Ponasterone A
Assay: Alamar Blue cell viability assay, cell cycle specific mode of action: cells arrested by ectopic p27Kip1 induced by Ponasterone A versus proliferating cells
Type: cell-based
Conditions: Homo sapiens, RKO p27 induced (arrested) cells, 10 μM Ponasterone A, 72 hours, value = class bound given in Table A, read-out: −logIC50 RKO p27 induced (arrested) (converted)
measured_property: IC50

compound	measured_property	reported_result
CC(CC(=O)Nc1sc2c(c1C#N)CCC(COC(=O)NC1CCOCC1)C2)c1ccccc1 (centres unmarked) [Example 309]	IC50	≥ 50.1 µM
CCOc1ccccc1CCC(=O)Nc1sc2c(c1C#N)CCC(COC(=O)NCc1csc(C)n1)C2 (centres unmarked) [Example 213]	IC50	≥ 100 µM
COc1cccc(C(C)CC(=O)Nc2sc3c(c2C#N)CCC(COC(=O)NCc2cccn2C)C3)c1 (centres unmarked) [Example 338]	IC50	≥ 50.1 µM
N#Cc1c(NC(=O)/C=C/c2cccnc2)sc2c1CCC(OC(=O)NCC1CCCO1)C2 (centres unmarked) [Example 70]	IC50	≥ 100 µM
CC(CC(=O)Nc1sc2c(c1C#N)CCC(COC(=O)NC(C)c1cccnc1)C2)c1ccccc1 (centres unmarked) [Example 316]	IC50	≥ 10 µM

Would you mind telling me what IC50 value was observed for CCOC(=O)OCC1CCc2c(sc(NC(=O)/C=C/c3cccnc3)c2C#N)C1 (centres unmarked) [Example 8] ?
≥ 100 µM

Try COc1cccc(CCC(=O)Nc2sc3c(c2C#N)CCC(OC(=O)NCc2ccno2)C3)c1 (centres unmarked) [Example 229] next.
≥ 100 µM

Try Cc1nocc1CNC(=O)OC1CCc2c(sc(NC(=O)/C=C/c3cccnc3)c2C#N)C1 (centres unmarked) [Example 59] next.
≥ 100 µM

###

Tested on: subclones of RKO colon adenocarcinoma cells (RKOp27 or RKOp21) arrested by Ponasterone A
Assay: Alamar Blue cell viability assay, cell cycle specific mode of action: cells arrested by ectopic p27Kip1 induced by Ponasterone A versus proliferating cells
Assay type: cell-based
Conditions: Homo sapiens, RKO p27 induced (arrested) cells, 10 μM Ponasterone A, 72 hours, value = class bound given in Table A, read-out: −logIC50 RKO p27 induced (arrested) (converted)
Experimental: To determine the cell cycle specific mode of action, subclones of RKO colon adenocarcinoma cells (RKOp27 or RKOp21 as described by Schmidt et al. in Oncogene 19, 2423-2429; 2000) are seeded into 96 well flat bottom plates at a density of 15000 cells per well in a volume of 50 μl per well in DMEM growth medium with 10% FCS containing 10 μM Ponasterone A. 24 hours after seeding the 50 μl each of the compound dilutions in DMEM medium are added into each well of the 96 Well plate. […]
measured_property: IC50

compound	measured_property	reported_result
Cc1cc(CNC(=O)OCC2CCc3c(sc(NC(=O)CCc4cccnc4)c3C#N)C2)no1 (centres unmarked)	IC50	≥ 100 µM

Would you mind telling me what IC50 value was observed for CCOc1ccccc1CCC(=O)Nc1sc2c(c1C#N)CCC(OC(=O)NCc1cn(C)cn1)C2 (centres unmarked) ?
≥ 10 µM

Try CC(CC(=O)Nc1sc2c(c1C#N)CCC(COC(=O)NCCn1ccnc1)C2)c1ccccc1 (centres unmarked) next.
≥ 10 µM

Try COC(=O)OCC1CCc2c(sc(NC(=O)CCc3cccc(OC)c3)c2C#N)C1 (centres unmarked) next.
≥ 100 µM

Try N#Cc1c(NC(=O)/C=C/c2cccnc2)sc2c1CCC(OC(=O)N1CCC(O)CC1)C2 (centres unmarked) next.
≥ 100 µM

Try COc1cccc(CCC(=O)Nc2sc3c(c2C#N)CCC(OC(=O)NCc2cccnc2)C3)c1 (centres unmarked) next.
≥ 100 µM

Try CCn1nccc1CNC(=O)OC1CCc2c(sc(NC(=O)/C=C/c3cccnc3)c2C#N)C1 (centres unmarked) next.
≥ 100 µM

Try COc1cccc(CCC(=O)Nc2sc3c(c2C#N)CCC(COC(=O)NCc2csc(C)n2)C3)c1 (centres unmarked) next.
≥ 100 µM

###

Below, each of the compounds is paired with its reported IC50 value.
Tested on: subclones of RKO colon adenocarcinoma cells (RKOp27 or RKOp21) arrested by Ponasterone A
Assay: Alamar Blue cell viability assay, cell cycle specific mode of action: cells arrested by ectopic p27Kip1 induced by Ponasterone A versus proliferating cells
Assay type: cell-based
Details: Homo sapiens, RKO p27 induced (arrested) cells, 10 μM Ponasterone A, 72 hours, value = class bound given in Table A, read-out: −logIC50 RKO p27 induced (arrested) (converted)

Here's what some known entries look like.
compound	IC50
C=CCN(C)C(=O)OCC1CCc2c(sc(NC(=O)/C=C/c3cccnc3)c2C#N)C1 (stereo not shown)	≥ 100 µM
CCOc1ccccc1CCC(=O)Nc1sc2c(c1C#N)CCC(COC(=O)NCc1cccnc1)C2 (stereo not shown)	≥ 100 µM
Cc1csc(CNC(=O)OCC2CCc3c(sc(NC(=O)/C=C/c4cccnc4)c3C#N)C2)n1 (stereo not shown)	≥ 100 µM

Moving on to the next compound.
Form entry - test system: subclones of RKO colon adenocarcinoma cells (RKOp27 or RKOp21) arrested by Ponasterone A; read-out: IC50; compound: COc1cccc(CCC(=O)Nc2sc3c(c2C#N)CCC(OC(=O)NCc2cc(C)no2)C3)c1 (stereo not shown)
≥ 100 µM

###

Tested on: subclones of RKO colon adenocarcinoma cells (RKOp27 or RKOp21) arrested by Ponasterone A
Experiment: Alamar Blue cell viability assay, cell cycle specific mode of action: cells arrested by ectopic p27Kip1 induced by Ponasterone A versus proliferating cells
Format: cell-based
Conditions: Homo sapiens, RKO p27 induced (arrested) cells, 10 μM Ponasterone A, 72 hours, value = class bound given in Table A, read-out: −logIC50 RKO p27 induced (arrested) (converted)
measured_property: IC50

Here's what some known entries look like.
molecule	reported_result
CCNC(=O)OCC1CCc2c(sc(NC(=O)CCc3cccc(OC)c3)c2C#N)C1 (centres unmarked)	≥ 100 µM
COc1cccc(CCC(=O)Nc2sc3c(c2C#N)CCC(OC(=O)NCC2CCOCC2)C3)c1 (centres unmarked)	≥ 100 µM
CC1CCCN1C(=O)OCC1CCc2c(sc(NC(=O)/C=C/c3cccnc3)c2C#N)C1 (centres unmarked)	≥ 100 µM
N#Cc1c(NC(=O)/C=C/c2cccnc2)sc2c1CCC(OC(=O)N1CC[C@@H](O)[C@@H](O)C1)C2 (some centres unmarked)	≥ 100 µM
N#Cc1c(NC(=O)/C=C/c2cccnc2)sc2c1CCC(COC(=O)N1CC[C@@H](O)[C@@H](O)C1)C2 (some centres unmarked)	≥ 100 µM
CC(CC(=O)Nc1sc2c(c1C#N)CCC(OC(=O)NCC1CCOCC1)C2)c1ccccc1 (centres unmarked)	≥ 50.1 µM
N#Cc1c(NC(=O)/C=C/c2cccnc2)sc2c1CC[C@@H](COC(=O)N1CCC(O)CC1)C2 [Example 114b]	≥ 100 µM
CC(CC(=O)Nc1sc2c(c1C#N)CCC(OC(=O)N1CCCC1)C2)c1cccnc1 (centres unmarked)	≥ 50.1 µM

Would you mind telling me what IC50 value was observed for CCOC(=O)OC1CCc2c(sc(NC(=O)CCc3ccccc3OCC)c2C#N)C1 (centres unmarked) ?
≥ 100 µM

Try COc1cccc(C(C)CC(=O)Nc2sc3c(c2C#N)CCC(COC(=O)NCc2cnn(C)c2)C3)c1 (centres unmarked) next.
≥ 10 µM

Try N#Cc1c(NC(=O)/C=C/c2cccnc2)sc2c1CC[C@H](COC(=O)N1CC(O)C1)C2 [Example 73a] next.
≥ 100 µM

Try CC(CC(=O)Nc1sc2c(c1C#N)CCC(OC(=O)NC1CCOCC1)C2)c1ccccc1 (centres unmarked) next.
≥ 10 µM

Try Cn1cncc1CNC(=O)OC1CCc2c(sc(NC(=O)/C=C/c3cccnc3)c2C#N)C1 (centres unmarked) next.
≥ 100 µM

###

Tested on: subclones of RKO colon adenocarcinoma cells (RKOp27 or RKOp21) arrested by Ponasterone A
Experiment: Alamar Blue cell viability assay, cell cycle specific mode of action: cells arrested by ectopic p27Kip1 induced by Ponasterone A versus proliferating cells
Type: cell-based
Conditions: Homo sapiens, RKO p27 induced (arrested) cells, 10 μM Ponasterone A, 72 hours, value = class bound given in Table A, read-out: −logIC50 RKO p27 induced (arrested) (converted)
measured_property: IC50

molecule	measured_property	reported_result
CC(CC(=O)Nc1sc2c(c1C#N)CCC(COC(=O)NCCc1cccnc1)C2)c1ccccc1 (centres unmarked)	IC50	≥ 50.1 µM
CCOc1ccccc1CCC(=O)Nc1sc2c(c1C#N)CCC(COC(=O)OCc1nccs1)C2 (centres unmarked)	IC50	≥ 100 µM
CC(CO)NC(=O)OCC1CCc2c(sc(NC(=O)/C=C/c3cccnc3)c2C#N)C1 (centres unmarked)	IC50	≥ 100 µM
CC(CC(=O)Nc1sc2c(c1C#N)CCC(OC(=O)NCC1CCCO1)C2)c1ccccc1 (centres unmarked)	IC50	≥ 10 µM
N#Cc1c(NC(=O)/C=C/c2cccnc2)sc2c1CCC(OC(=O)N[C@H]1CC[C@@H](O)CC1)C2 (some centres unmarked)	IC50	≥ 100 µM
CCOc1ccccc1CCC(=O)Nc1sc2c(c1C#N)CCC(OC(=O)NCc1nccs1)C2 (centres unmarked)	IC50	≥ 100 µM
COc1cccc(CCC(=O)Nc2sc3c(c2C#N)CCC(COC(=O)NCC2CCCO2)C3)c1 (centres unmarked)	IC50	≥ 100 µM
CCCNC(=O)OCC1CCc2c(sc(NC(=O)/C=C/c3cccnc3)c2C#N)C1 (centres unmarked)	IC50	≥ 100 µM
Cc1oncc1CNC(=O)OC1CCc2c(sc(NC(=O)CC(C)c3cccnc3)c2C#N)C1 (centres unmarked)	IC50	≥ 100 µM
Cc1cc(CNC(=O)OC2CCc3c(sc(NC(=O)/C=C/c4cccnc4)c3C#N)C2)no1 (centres unmarked)	IC50	≥ 100 µM

Would you mind telling me what IC50 value was observed for CCOc1ccccc1CCC(=O)Nc1sc2c(c1C#N)CCC(COC(=O)NCc1ccncc1)C2 (centres unmarked) ?
≥ 100 µM

Try N#Cc1c(NC(=O)/C=C/c2cccnc2)sc2c1CCC(COC(=O)N1CCCCO1)C2 (centres unmarked) next.
≥ 100 µM
